subject.of.test: Dictyostelium NDP Kinase wt (Dictyostelium discoideum)
Construct: made in house
Sequence (P22887 whole entry): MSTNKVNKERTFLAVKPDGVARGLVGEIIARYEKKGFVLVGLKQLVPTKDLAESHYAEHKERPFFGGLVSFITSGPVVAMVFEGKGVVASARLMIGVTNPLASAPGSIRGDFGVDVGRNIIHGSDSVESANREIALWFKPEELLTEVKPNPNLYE
experimental.details: Pre-steady-state fluorescence stopped-flow phosphotransfer from nucleoside triphosphates, wild type Dd-NDPK
Format: biochemical
experimental.parameters: average of three determinations
recorded.metric: k2/Ks wt (catalytic efficiency of phosphotransfer) (M⁻¹ s⁻¹)
# number only, unit M⁻¹ s⁻¹ dropped from output

- molecule: "Nc1nc2c(ncn2[C@H]2CC[C@@H](COP(=O)(O)OP(=O)(O)OP(=O)(O)O)O2)c(=O)[nH]1 [ddGTP, dideoxy-GTP]"
  test.result: 2300
- molecule: "Cc1cn([C@H]2C[C@H](O)[C@@H](COP(=O)(O)OP(=O)(O)OP(=O)(O)O)O2)c(=O)[nH]c1=O [dTTP]"
  test.result: "5.7e+06"

Challenge: Value wanted: k2/Ks wt (catalytic efficiency of phosphotransfer) (Dictyostelium NDP Kinase wt (Dictyostelium discoideum)) of entry Nc1ncnc2c1ncn2[C@@H]1O[C@H](COP(=O)(O)OP(=O)(O)OP(=O)(O)O)[C@@H](O)[C@H]1O [ATP]
Response given: 4.5e+06

Challenge: Give Dictyostelium NDP Kinase wt (Dictyostelium discoideum) k2/Ks wt (catalytic efficiency of phosphotransfer) for Nc1nc2c(ncn2[C@@H]2O[C@H](COP(=O)(O)OP(=O)(O)OP(=O)(O)O)[C@@H](O)[C@H]2O)c(=O)[nH]1 [GTP]
Response given: 8e+06

Where these numbers come from: patent US20030207830A1
